I'd appreciate it if you could supply Kd values for the items below.
molecular target: T1, recombinant human Tau monomer, 2N4R isoform (amino acids 2-441) (human, UniProt P10636-8 2-441); assay: SPR screen, hIgG captured, Tau monomer analyte
T1 construct: range 2-441; N-terminal His-tag removed with TEV protease; also called monomeric Tau
T1 sequence (P10636 other isoform, or with tags, fused parts or gaps limits assumed): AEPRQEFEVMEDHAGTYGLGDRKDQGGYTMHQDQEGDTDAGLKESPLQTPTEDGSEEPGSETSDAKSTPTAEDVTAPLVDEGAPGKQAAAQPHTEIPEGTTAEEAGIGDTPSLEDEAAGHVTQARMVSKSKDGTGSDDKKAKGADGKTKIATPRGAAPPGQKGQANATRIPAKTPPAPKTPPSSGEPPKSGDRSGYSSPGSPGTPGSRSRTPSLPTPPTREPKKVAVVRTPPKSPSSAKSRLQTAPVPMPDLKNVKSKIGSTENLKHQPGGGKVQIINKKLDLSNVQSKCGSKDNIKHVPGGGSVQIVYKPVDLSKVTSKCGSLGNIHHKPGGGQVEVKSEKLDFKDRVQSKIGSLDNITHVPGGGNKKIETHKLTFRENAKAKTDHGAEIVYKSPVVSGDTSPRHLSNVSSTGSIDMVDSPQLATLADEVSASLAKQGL
Give the value in nM but do not write nM after it.

Dear colleague, I am looking for the recorded Kd of the following binder: hu94B2 HC6 + LC9 (antibody, V domains shown) VH: EVQLVQSGAEVKKPGASVKVSCKASGYSLTGYTMNWVRQAPGQGLEWIGLISPYNGVTSYNQKFKGRVTITVDKSTSTAYLELSSLRSEDTAVYYCARQGAYWGQGTLVTVSS VL: DVVMTQTPLSLPVTPGQPASISCKSSQSLLDSDGKTYLNWLLQKPGQSPQRLIYLVSKLDSGVPDRFSGSGSGTDFTLKISRVEAEDVGVYYCWQGTHFPWTFGQGTKVEIK
0.9

Dear colleague, I am looking for the recorded Kd of the following binder: hu94B2 HC5 + LC9 (antibody, V domains shown) VH: EVQLVQSGAEVKKPGASVKVSCKASGYSLTGYTMNWVRQAPGQGLEWIGLISPYNGVTSYNQKFKGRATLTVDTSTSTAYLELSSLRSEDTAVYYCARQGAYWGQGTLVTVSS VL: DVVMTQTPLSLPVTPGQPASISCKSSQSLLDSDGKTYLNWLLQKPGQSPQRLIYLVSKLDSGVPDRFSGSGSGTDFTLKISRVEAEDVGVYYCWQGTHFPWTFGQGTKVEIK
2.7

Dear colleague, I am looking for the recorded Kd of the following binder: hu94B2 HC1 + LC15 (antibody, V domains shown) VH: EVQLVQSGAEVKKPGASVKVSCKASGYSLTGYTMNWVRQAPGQGLEWIGLISPYNGVTSYNQKFKGRATLTVDKSTSTAYLELSSLRSEDTAVYYCARQGAYWGQGTLVTVSS VL: DIVMTQTPLSLPVTPGQPASISCKSSQSLLDSDGKTYLNWYLQKPGQSPQRLIYLVSKLDSGVPDRFSGSGSGTDFTLKISRVEAEDVGVYYCWQGTHFPWTFGQGTKVEIK
104
